Data provenance: PubChem BioAssay AID1963421

Tested on: 519858-162-T-J1-PDC complex spheroid growth, % test/control
Assay: Anticancer human tumor 519858-162-T-J1-PDC patient-derived colon adenocarcinoma cell line growth inhibition [Asc]
Details: curve of first compound; second compound 0.00949 µM
Text: Multicellular complex tumor spheroid response to apoptosis pathway targeting inhibitors Alrizomadlin, Pelcitoclax, and Dasminapant in combination with a variety of drugs and investigational agents in selected tumor cell lines […] Compounds. […] If the clinical Cmax for an agent had not been determined, the highest concentration tested was 10 microM. […]
RECORDED ENDPOINT: IC50 (nM)

1. Cc1nc(N2CCC3(CC2)COC(C)C3N)c(CO)nc1Sc1ccnc(N)c1Cl (stereo not drawn) + CCN1C(C(=O)NC23CCC(C(=O)O)(CC2)CC3)C(c2cccc(Cl)c2F)C2(C(=O)Nc3cc(Cl)ccc32)C12CCCCC2
2. C=C(F)C(=O)N1CCN(c2nc(OCC3CCCN3C)nc3c2CCN(c2cccc4cccc(Cl)c24)C3)CC1CC#N (stereo not drawn) + CCN1C(C(=O)NC23CCC(C(=O)O)(CC2)CC3)C(c2cccc(Cl)c2F)C2(C(=O)Nc3cc(Cl)ccc32)C12CCCCC2
Between 1 and 2 , which one shows the smaller IC50 number? # respond with the chosen item's label
1

====

system: 519858-162-T-J1-PDC complex spheroid growth, % test/control; test: Anticancer human tumor 519858-162-T-J1-PDC cell line growth inhibition [Asc]; settings: second compound 0.316 µM; first compound 0.00949 µM; stronger effect = lower value;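 further: seven day drug exposure begun three days after spheroid seeding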;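 on viability, T/C: 100% = DMSO vehicle wells and lower values mean less viable spheroid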
In this section, each of the molecules is paired with its reported viability, T/C.
Numeric answer only, unit % assumed.

These solved cases illustrate the format of a correct answer.
Cc1nc(N2CCC3(CC2)COC(C)C3N)c(CO)nc1Sc1ccnc(N)c1Cl (stereo not drawn) + Cc1c(S(C)(=O)=O)c(-c2cc(F)cc(N3CCN(c4ccc(NS(=O)(=O)c5ccc(NC(CCN6CCC(C(=O)OCCCP(=O)(O)O)CC6)CSc6ccccc6)c(S(=O)(=O)C(F)(F)F)c5)cc4)CC3)c2)c(-c2ccc(Cl)cc2)n1C(C)C	81.5
NC(=O)C(=Cn1cnc(-c2cc(C(F)(F)F)cc(C(F)(F)F)c2)n1)c1cncnc1 + Cc1c(S(C)(=O)=O)c(-c2cc(F)cc(N3CCN(c4ccc(NS(=O)(=O)c5ccc(NC(CCN6CCC(C(=O)OCCCP(=O)(O)O)CC6)CSc6ccccc6)c(S(=O)(=O)C(F)(F)F)c5)cc4)CC3)c2)c(-c2ccc(Cl)cc2)n1C(C)C	90.9

Shifting focus to the molecule that follows.
# query: viability, T/C of entry NC(=O)C(=Cn1cnc(-c2cc(C(F)(F)F)cc(C(F)(F)F)c2)n1)c1cncnc1 + CNC(C)C(=O)NC1CN(S(=O)(=O)c2cccc(S(=O)(=O)N3CCC4CCC(C(=O)NC(c5ccccc5)c5ccccc5)N4C(=O)C(NC(=O)C(C)NC)C3)c2)CCC2CCC(C(=O)NC(c3ccccc3)c3ccccc3)N2C1=O
67.1

====

test system: 519858-162-T-J1-PDC complex spheroid growth, % test/control; experiment: Anticancer human tumor 519858-162-T-J1-PDC cell line growth inhibition [Asc]; details: second compound 0.00316 µM; first compound 10 µM; stronger effect = lower value;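 further: seven day drug exposure begun three days after spheroid seeding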;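 on viability, T/C: 100% = DMSO vehicle wells and lower values mean less viable spheroid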
In this section, each of the compounds is paired with its reported viability, T/C.
Numeric answer only, unit % assumed.

These solved cases illustrate the format of a correct answer.
O=C(c1cc(Cc2n[nH]c(=O)c3ccccc23)ccc1F)N1CCN(C(=O)C2CC2)CC1 + CNC(C)C(=O)NC1CN(S(=O)(=O)c2cccc(S(=O)(=O)N3CCC4CCC(C(=O)NC(c5ccccc5)c5ccccc5)N4C(=O)C(NC(=O)C(C)NC)C3)c2)CCC2CCC(C(=O)NC(c3ccccc3)c3ccccc3)N2C1=O	65.1
C#Cc1c(F)ccc2cc(O)cc(-c3ncc4c(N5CC6CCC(C5)N6)nc(OCC56CCCN5CC(F)C6)nc4c3F)c12 (centres undefined) + CNC(C)C(=O)NC1CN(S(=O)(=O)c2cccc(S(=O)(=O)N3CCC4CCC(C(=O)NC(c5ccccc5)c5ccccc5)N4C(=O)C(NC(=O)C(C)NC)C3)c2)CCC2CCC(C(=O)NC(c3ccccc3)c3ccccc3)N2C1=O	72.1
C=C(F)C(=O)N1CCN(c2nc(OCC3CCCN3C)nc3c2CCN(c2cccc4cccc(Cl)c24)C3)CC1CC#N (centres undefined) + CNC(C)C(=O)NC1CN(S(=O)(=O)c2cccc(S(=O)(=O)N3CCC4CCC(C(=O)NC(c5ccccc5)c5ccccc5)N4C(=O)C(NC(=O)C(C)NC)C3)c2)CCC2CCC(C(=O)NC(c3ccccc3)c3ccccc3)N2C1=O	113

Shifting focus to the compound that follows.
# query: viability, T/C | item C=CC(=O)N1CCN(c2nc(=O)n(-c3c(C)ccnc3C(C)C)c3nc(-c4c(O)cccc4F)c(F)cc23)C(C)C1 (centres undefined) + CNC(C)C(=O)NC1CN(S(=O)(=O)c2cccc(S(=O)(=O)N3CCC4CCC(C(=O)NC(c5ccccc5)c5ccccc5)N4C(=O)C(NC(=O)C(C)NC)C3)c2)CCC2CCC(C(=O)NC(c3ccccc3)c3ccccc3)N2C1=O | system: 519858-162-T-J1-PDC complex spheroid growth, % test/control
89.6
